Biological target: human TREM2/DAP12 fusion protein (human, UniProt O43914 41-113, limits assumed)
Sequence (O43914 other isoform, or with tags, fused parts or gaps limits assumed): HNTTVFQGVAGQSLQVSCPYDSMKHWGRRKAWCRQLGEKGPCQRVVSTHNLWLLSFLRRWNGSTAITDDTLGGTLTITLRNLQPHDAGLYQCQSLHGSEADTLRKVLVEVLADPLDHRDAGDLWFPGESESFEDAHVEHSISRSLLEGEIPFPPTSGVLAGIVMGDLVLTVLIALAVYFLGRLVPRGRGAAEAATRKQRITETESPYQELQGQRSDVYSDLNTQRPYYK
Experiment: cell-based or functional assay
MEASURED QUANTITY: Luciferase activation soluble 10 nM IgG, FOC (FOC)

BINDER	MEASUREMENT
AL2p-28 (antibody, V domains shown, Fab and IgG formats under one id) VH: QVQLVQSGAEVKKPGSSVKVSCKASGYAFSSHWMNWVRQAPGQGLEWMGRIYPGVGDTNYAQKFQGRVTITADESTSTAYMELSSLRSEDTAVYYCARLLRNQPGESYAMDYWGQGTLVTVSS VL: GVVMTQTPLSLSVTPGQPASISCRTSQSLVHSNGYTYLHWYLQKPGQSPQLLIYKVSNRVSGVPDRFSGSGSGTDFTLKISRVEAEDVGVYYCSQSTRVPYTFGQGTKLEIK	2.14
AL2p-10 (antibody, V domains shown, Fab and IgG formats under one id) VH: QVQLVQSGAEVKKPGSSVKVSCKASGYAFSSDWMNWVRQAPGQGLEWMGRIYPGDGDTNYAQKFQGRVTITADESTSTAYMELSSLRSEDTAVYYCARLLRNQPGESYAMDYWGQGTLVTVSS VL: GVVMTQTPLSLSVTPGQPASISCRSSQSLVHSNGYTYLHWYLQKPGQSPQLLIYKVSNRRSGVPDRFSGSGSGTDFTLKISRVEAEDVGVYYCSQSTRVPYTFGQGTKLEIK	1.6
AL2p-h50 (antibody, human IgG1, V domains shown, humanized, human IgG1; Fab and IgG formats under one id) VH: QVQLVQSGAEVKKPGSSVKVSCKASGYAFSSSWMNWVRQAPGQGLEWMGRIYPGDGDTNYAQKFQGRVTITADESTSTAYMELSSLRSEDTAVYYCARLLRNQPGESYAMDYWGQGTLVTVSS VL: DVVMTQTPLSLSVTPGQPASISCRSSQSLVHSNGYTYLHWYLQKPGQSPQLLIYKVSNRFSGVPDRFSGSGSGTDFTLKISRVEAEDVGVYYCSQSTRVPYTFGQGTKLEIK	1.26
AL2p-21 (antibody, V domains shown, Fab and IgG formats under one id) VH: QVQLVQSGAEVKKPGSSVKVSCKASGYAFSSHWMNWVRQAPGQGLEWMGRIYPGDGDTNYAWKFQGRVTITADESTSTAYMELSSLRSEDTAVYYCARLLRNQPGESYAMDYWGQGTLVTVSS VL: GVVMTQTPLSLSVTPGQPASISCRSSSSLVHSNGYTYLHWYLQKPGQSPQLLIYKVSNRKSGVPDRFSGSGSGTDFTLKISRVEAEDVGVYYCSQSTRVPYTFGQGTKLEIK	1.83
AL2p-13 (antibody, V domains shown, Fab and IgG formats under one id; also called AL22-13) VH: QVQLVQSGAEVKKPGSSVKVSCKASGYAFSSHWMNWVRQAPGQGLEWMGRIYPGDGDTNYAQKFKGRVTITADESTSTAYMELSSLRSEDTAVYYCARLLRNQPGESYAMDYWGQGTLVTVSS VL: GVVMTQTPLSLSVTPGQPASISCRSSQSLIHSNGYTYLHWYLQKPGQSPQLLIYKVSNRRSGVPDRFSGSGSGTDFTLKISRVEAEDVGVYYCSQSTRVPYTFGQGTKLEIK	2.17
